# system: EGFR A763_Y764insFHEA (Homo sapiens, UniProt P00533, INS763FHEA)
# Sequence (P00533 with tags, fused parts or gaps INS763FHEA limits assumed): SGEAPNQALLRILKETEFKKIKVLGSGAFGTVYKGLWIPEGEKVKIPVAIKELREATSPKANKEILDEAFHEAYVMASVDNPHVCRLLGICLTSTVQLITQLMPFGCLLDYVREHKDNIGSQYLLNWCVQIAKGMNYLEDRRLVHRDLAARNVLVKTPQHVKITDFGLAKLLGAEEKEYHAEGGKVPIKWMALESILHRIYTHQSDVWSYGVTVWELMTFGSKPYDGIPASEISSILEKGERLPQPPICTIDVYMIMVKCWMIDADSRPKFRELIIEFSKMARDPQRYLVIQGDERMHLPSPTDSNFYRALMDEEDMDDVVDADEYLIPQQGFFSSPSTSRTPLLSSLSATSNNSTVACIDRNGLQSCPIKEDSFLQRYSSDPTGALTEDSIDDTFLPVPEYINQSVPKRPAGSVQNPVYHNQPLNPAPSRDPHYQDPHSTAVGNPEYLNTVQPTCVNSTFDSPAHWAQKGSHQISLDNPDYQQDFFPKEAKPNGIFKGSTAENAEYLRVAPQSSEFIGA
# assayRemarks: Kinase activity assay (33P-ATP filter-binding) on EGFR exon 20 insertion mutant kinase A763_Y764insFHEA
# Assay type: biochemical
# testContext: ATP at Km
pIC50: −log10 of the molar value.
quantity: pIC50

C=CC(=O)N1CC(C(F)(F)c2cc3c(Nc4ccc(Cl)c(Cl)c4F)ncnc3cc2OC)C1 [Example 3] = 8.88
COc1cc2ncnc(Nc3ccc(Cl)c(Cl)c3F)c2cc1N1CCCC1 [Example 2] = 8.52
C=CC(=O)N1CCC(C(=O)c2cc3c(Nc4ccc(Cl)c(Cl)c4F)ncnc3cc2OC)CC1 [Example 6] = 7.79

[P] C=CC(=O)N1CC(C(=O)c2cc3c(Nc4ccc(Cl)c(Cl)c4F)ncnc3cc2OC)C1 [Example 4]
[Q] C=CC(=O)N1CC2CC(Oc3cc4c(Nc5ccc(Cl)c(Cl)c5F)ncnc4cc3OC)CC2C1 (stereo not shown) [Example 7]
[R] C=CC(=O)N1CCC(C(F)(F)c2cc3c(Nc4ccc(Cl)c(Cl)c4F)ncnc3cc2OC)CC1 [Example 5]
[S] C=CC(=O)N1CC2CN(c3cc4c(Nc5ccc(Cl)c(Cl)c5F)ncnc4cc3OC)CC2C1 (stereo not shown) [Example 1]
// ascending sort on recorded pIC50 Write the labels out in the order the request specifies.
P, S, Q, R

----------
# system: EGFR A763_Y764insFHEA (Homo sapiens, UniProt P00533, INS763FHEA)
# assayRemarks: Kinase activity assay (33P-ATP filter-binding) on EGFR exon 20 insertion mutant kinase A763_Y764insFHEA
# Type: biochemical
# testContext: ATP at Km; class symbols
quantity: IC50

C=CC(=O)N1C2CCC1CC(C(=O)c1cc3c(Nc4ccc(Cl)c(Cl)c4F)ncnc3cc1OC)C2 (stereo not shown) = 4 to 40 nM
C=CC(=O)N1CC2CC1CC2C(=O)c1cc2c(Nc3ccc(Cl)c(Cl)c3F)ncnc2cc1OC (stereo not shown) = 4 to 40 nM
C=CC(=O)N1CCC(C(F)(F)c2cc3c(Nc4ccc(Cl)c(Cl)c4F)ncnc3cc2OC)CC1 = < 4 nM
COc1cc2ncnc(Nc3ccc(Cl)c(Cl)c3F)c2cc1N1CCCC1 = < 4 nM

What IC50 value was documented for this molecule, `C=CC(=O)N1C[C@H]2C[C@H](Oc3cc4c(Nc5ccc(Cl)c(Cl)c5F)ncnc4cc3OCCOC)C[C@H]2C1` ?
< 4 nM

One more molecule: `C=CC(=O)N1CC(C(F)(F)c2cc3c(Nc4ccc(Cl)c(Cl)c4F)ncnc3cc2OC)C1`
< 4 nM

What about this molecule? C=CC(=O)N1CC2C(C1)C2Oc1cc2c(Nc3ccc(Cl)c(Cl)c3F)ncnc2cc1OC (stereo not shown)
< 4 nM

----------
Each entry below carries its recorded pIC50.
# system: Her2 A775-G776insYVMA (Homo sapiens, UniProt P04626, INS775YVMA)
# Sequence (P04626 with tags, fused parts or gaps INS775YVMA limits assumed): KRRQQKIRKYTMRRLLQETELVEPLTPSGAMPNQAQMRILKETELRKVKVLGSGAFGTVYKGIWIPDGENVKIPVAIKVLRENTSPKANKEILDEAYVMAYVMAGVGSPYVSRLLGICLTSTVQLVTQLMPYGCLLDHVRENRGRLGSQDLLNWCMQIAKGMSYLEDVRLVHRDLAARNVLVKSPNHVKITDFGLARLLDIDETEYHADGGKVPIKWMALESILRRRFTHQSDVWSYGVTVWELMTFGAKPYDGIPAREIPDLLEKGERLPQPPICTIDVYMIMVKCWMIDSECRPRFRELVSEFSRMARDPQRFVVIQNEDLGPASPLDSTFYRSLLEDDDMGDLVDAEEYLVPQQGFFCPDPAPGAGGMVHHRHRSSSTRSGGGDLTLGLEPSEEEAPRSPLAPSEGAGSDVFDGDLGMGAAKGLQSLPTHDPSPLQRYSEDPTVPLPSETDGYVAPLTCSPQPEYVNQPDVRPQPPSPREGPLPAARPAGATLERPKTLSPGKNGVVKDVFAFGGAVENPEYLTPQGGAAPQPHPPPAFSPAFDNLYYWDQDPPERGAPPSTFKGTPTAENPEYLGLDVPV
# assayRemarks: Kinase activity assay (33P-ATP filter-binding) on Her2 exon 20 insertion mutant kinase A775-G776insYVMA
# Type: biochemical
# testContext: ATP at Km; class symbols
pIC50: −log10 of the molar value.

Check out these entries, answers already filled in.
C=CC(=O)N1C2CCC1CC(C(=O)c1cc3c(Nc4ccc(Cl)c(Cl)c4F)ncnc3cc1OC)C2 (stereo not shown) = 7.40 to 8.40
C=CC(=O)N1C[C@H]2C[C@H](Oc3cc4c(Nc5ccc(Cl)c(Cl)c5F)ncnc4cc3OCCCN3CCOCC3)C[C@H]2C1 = > 8.40
C=CC(=O)N1CC2(CC(Oc3cc4c(Nc5ccc(Cl)c(Cl)c5F)ncnc4cc3OC)C2)C1 = > 8.40

Let's switch to this compound now.
Would you kindly share the measured pIC50 for C=CC(=O)N1CCC(Oc2cc3c(Nc4ccc(Cl)c(Cl)c4F)ncnc3cc2OC)CC1 [Poziotinib, reference compound] ?
7.40 to 8.40

----------
# system: EGFR D770-N771insNPG (Homo sapiens, UniProt P00533, INS770NPG)
# Sequence (P00533 with tags, fused parts or gaps INS770NPG limits assumed): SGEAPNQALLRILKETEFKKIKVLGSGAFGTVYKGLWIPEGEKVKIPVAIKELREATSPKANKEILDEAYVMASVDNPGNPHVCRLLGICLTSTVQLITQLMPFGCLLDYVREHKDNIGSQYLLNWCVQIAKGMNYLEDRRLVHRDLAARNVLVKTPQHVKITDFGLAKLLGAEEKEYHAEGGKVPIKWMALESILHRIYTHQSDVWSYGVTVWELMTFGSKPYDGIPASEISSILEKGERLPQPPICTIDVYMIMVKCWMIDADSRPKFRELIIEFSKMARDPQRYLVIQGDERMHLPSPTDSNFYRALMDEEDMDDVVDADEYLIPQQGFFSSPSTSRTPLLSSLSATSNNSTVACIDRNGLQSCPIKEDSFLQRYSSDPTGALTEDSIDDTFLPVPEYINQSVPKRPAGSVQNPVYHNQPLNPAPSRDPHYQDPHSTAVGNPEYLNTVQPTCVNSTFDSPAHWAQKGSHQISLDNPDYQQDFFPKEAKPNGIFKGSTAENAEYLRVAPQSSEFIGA
# assayRemarks: Kinase activity assay (33P-ATP filter-binding) on EGFR exon 20 insertion mutant kinase D770-N771insNPG
# Assay type: biochemical
# testContext: ATP at Km; class symbols
quantity: IC50

Example entries begin here.
C=CC(=O)N1C2CC(Sc3cc4c(Nc5ccc(Cl)c(Cl)c5F)ncnc4cc3OC)CC1C2 (centres unmarked) [Example 8] = 4 to 40 nM
C=CC(=O)N1CC(C(F)(F)c2cc3c(Nc4ccc(Cl)c(Cl)c4F)ncnc3cc2OC)C1 [Example 3] = < 4 nM
C=CC(=O)N1C[C@H]2C[C@H](Oc3cc4c(Nc5ccc(Cl)c(Cl)c5F)ncnc4cc3OCCCN3CCOCC3)C[C@H]2C1 [Example 17] = < 4 nM
COc1cc2ncnc(Nc3ccc(Cl)c(Cl)c3F)c2cc1N1CCCC1 [Example 2] = < 4 nM
C=CC(=O)N1CC2(CC(Oc3cc4c(Nc5ccc(Cl)c(Cl)c5F)ncnc4cc3OC)C2)C1 [Example 13] = < 4 nM

// IC50 lookup, key: C=CC(=O)N1CCC(C(=O)c2cc3c(Nc4ccc(Cl)c(Cl)c4F)ncnc3cc2OC)CC1 [Example 6]
4 to 40 nM

Repeat for the following compound: C=CC(=O)N1CC2CC(Oc3cc4c(Nc5ccc(Cl)c(Cl)c5F)ncnc4cc3OC)CC2C1 (centres unmarked) [Example 7]
< 4 nM

Try this compound too: C=CC(=O)N1CC2C(C1)C2Oc1cc2c(Nc3ccc(Cl)c(Cl)c3F)ncnc2cc1OC (centres unmarked) [Example 10]
< 4 nM

----------
# system: Her2 A775-G776insYVMA (Homo sapiens, UniProt P04626, INS775YVMA)
# assayRemarks: Kinase activity assay (33P-ATP filter-binding) on Her2 exon 20 insertion mutant kinase A775-G776insYVMA
# Type: biochemical
# testContext: ATP at Km; class symbols
pIC50: −log10 of the molar value.
quantity: pIC50

C=CC(=O)N1CC(C(F)(F)c2cc3c(Nc4ccc(Cl)c(Cl)c4F)ncnc3cc2OC)C1 = > 8.40

Given `C=CC(=O)N1C[C@H]2C[C@H](Oc3cc4c(Nc5ccc(Cl)c(Cl)c5F)ncnc4cc3OCCOC)C[C@H]2C1` , state its recorded pIC50.
> 8.40

What do we get for `C=CC(=O)N1CCC(C(F)(F)c2cc3c(Nc4ccc(Cl)c(Cl)c4F)ncnc3cc2OC)CC1` ?
> 8.40

Now give it for C=CC(=O)N1CC2CC(Oc3cc4c(Nc5ccc(Cl)c(Cl)c5F)ncnc4cc3OC)CC2C1 (centres unmarked) too.
> 8.40

Follow-up entry: C=CC(=O)N1CC2CC1CC2C(=O)c1cc2c(Nc3ccc(Cl)c(Cl)c3F)ncnc2cc1OC (centres unmarked)
7.40 to 8.40

----------
# system: EGFR D770-N771insNPG (Homo sapiens, UniProt P00533, INS770NPG)
# assayRemarks: Kinase activity assay (33P-ATP filter-binding) on EGFR exon 20 insertion mutant kinase D770-N771insNPG
# Assay type: biochemical
# testContext: ATP at Km; class symbols
pIC50: −log10 of the molar value.
Reported pIC50 values are given for each entry in this list.

Field: example entries. Status: answers known.
C=CC(=O)N1C[C@H]2C[C@H](Oc3cc4c(Nc5ccc(Cl)c(Cl)c5F)ncnc4cc3OCCOC)C[C@H]2C1 = > 8.40
C=CC(=O)N1CCC(C(F)(F)c2cc3c(Nc4ccc(Cl)c(Cl)c4F)ncnc3cc2OC)CC1 = > 8.40
C=CC(=O)N1CC2CN(c3cc4c(Nc5ccc(Cl)c(Cl)c5F)ncnc4cc3OC)CC2C1 (stereo not drawn) = > 8.40
C=CC(=O)N1CC(C(=O)c2cc3c(Nc4ccc(Cl)c(Cl)c4F)ncnc3cc2OC)C1 = > 8.40
C=CC(=O)N1C2CCC1CC(C(=O)c1cc3c(Nc4ccc(Cl)c(Cl)c4F)ncnc3cc1OC)C2 (stereo not drawn) = 7.40 to 8.40

Attention now turns to another entry.
Using the record for C=CC(=O)N1CC2CC1CC2C(=O)c1cc2c(Nc3ccc(Cl)c(Cl)c3F)ncnc2cc1OC (stereo not drawn) , report its pIC50.
7.40 to 8.40

----------
# system: Her2 A775-G776insYVMA (Homo sapiens, UniProt P04626, INS775YVMA)
# assayRemarks: Kinase activity assay (33P-ATP filter-binding) on Her2 exon 20 insertion mutant kinase A775-G776insYVMA
# Type: biochemical
# testContext: ATP at Km
pIC50: −log10 of the molar value.
quantity: pIC50

C=CC(=O)N1CC2CC(Oc3cc4c(Nc5ccc(Cl)c(Cl)c5F)ncnc4cc3OC)CC2C1 (stereo not shown) = 8.74

[A] C=CC(=O)N1CCC(C(F)(F)c2cc3c(Nc4ccc(Cl)c(Cl)c4F)ncnc3cc2OC)CC1
[B] C=CC(=O)N1CCC(Oc2cc3c(Nc4ccc(Cl)c(Cl)c4F)ncnc3cc2OC)CC1 [Poziotinib, reference compound]
[C] C=CC(=O)N1CC(C(F)(F)c2cc3c(Nc4ccc(Cl)c(Cl)c4F)ncnc3cc2OC)C1
Given 3 molecules, produce a descending ranking by pIC50. Sort the labels as requested; that list is your answer.
A, C, B
(A: 8.99, C: 8.58, B: 8.32)
